Every entry's value here was drawn from ChEMBL document CHEMBL1145260.

Readings of MIC for the listed molecules
Test system: Streptococcus pneumoniae
Test: Minimum inhibitory concentration against Streptococcus pneumoniae ATCC 6303 (erythromycin-susceptible strain)
Type: functional
Express the result in µg/mL but write the number alone.

Molecule	Subject of test	Display unit	MIC
CC[C@H]1OC(=O)[C@H](C)C(=O)[C@H](C)[C@@H](O[C@@H]2O[C@H](C)C[C@H](N(C)C)[C@H]2O)[C@@](C)(OCC#Cc2cccs2)C[C@@H](C)C2=NCCN3C(=O)O[C@@]1(C)[C@H]3[C@H]2C	Streptococcus pneumoniae	µg/mL	0.03

**Q:** Quick one: MIC of `CC[C@H]1OC(=O)[C@H](C)C(=O)[C@H](C)[C@@H](O[C@@H]2O[C@H](C)C[C@H](N(C)C)[C@H]2O)[C@@](C)(OCC#Cc2cnc3c(F)cccc3c2)C[C@@H](C)C2=NCCN3C(=O)O[C@@]1(C)[C@H]3[C@H]2C` ?
**A:** 0.004

**Q:** Quick one: MIC of CC[C@H]1OC(=O)[C@H](C)[C@@H](O[C@H]2C[C@@](C)(OC)[C@@H](O)[C@H](C)O2)[C@H](C)[C@@H](O[C@@H]2O[C@H](C)C[C@H](N(C)C)[C@H]2O)[C@](C)(O)C[C@@H](C)C(=O)[C@H](C)[C@@H](O)[C@]1(C)O [ERYTHROMYCIN] ?
**A:** 0.06

====

System: Staphylococcus aureus
Experiment: Minimum inhibitory concentration against Staphylococcus aureus 6538P (erythromycin-susceptible strain)
Format: functional
# YES = MIC below 0.2 µg/mL (exclusive); NO = MIC at/above 0.2 µg/mL

# example entries with known answers
Smiles repr	Group
CC[C@H]1OC(=O)[C@H](C)C(=O)[C@H](C)[C@@H](O[C@@H]2O[C@H](C)C[C@H](N(C)C)[C@H]2O)[C@](C)(OCC=Cc2cnc3ccccc3c2)C[C@@H](C)C(=O)[C@H](C)[C@H]2NC(=O)O[C@@]21C	YES
CC[C@H]1OC(=O)[C@H](C)C(=O)[C@H](C)[C@@H](O[C@@H]2O[C@H](C)C[C@H](N(C)C)[C@H]2O)[C@@](C)(OCC#CCCc2ccc(-c3cccs3)cc2)C[C@@H](C)C2=NCCN3C(=O)O[C@@]1(C)[C@H]3[C@H]2C	NO
CC[C@H]1OC(=O)[C@H](C)C(=O)[C@H](C)[C@@H](O[C@@H]2O[C@H](C)C[C@H](N(C)C)[C@H]2O)[C@@](C)(OCC#Cc2cccs2)C[C@@H](C)C2=NCCN3C(=O)O[C@@]1(C)[C@H]3[C@H]2C	YES
CC[C@H]1OC(=O)[C@H](C)C(=O)[C@H](C)[C@@H](O[C@@H]2O[C@H](C)C[C@H](N(C)C)[C@H]2O)[C@@](C)(OCC#Cc2cnc3c(F)cccc3c2)C[C@@H](C)C2=NCCN3C(=O)O[C@@]1(C)[C@H]3[C@H]2C	YES
CC[C@H]1OC(=O)[C@H](C)C(=O)[C@H](C)[C@@H](O[C@@H]2O[C@H](C)C[C@H](N(C)C)[C@H]2O)[C@@](C)(OCC#Cc2ccc(-c3nnn(C)n3)s2)C[C@@H](C)C2=NCCN3C(=O)O[C@@]1(C)[C@H]3[C@H]2C	NO

**Q:** API: query returns whether the molecule falls strictly under 0.2 µg/mL in MIC. Query: `CC[C@H]1OC(=O)[C@H](C)[C@@H](O[C@H]2C[C@@](C)(OC)[C@@H](O)[C@H](C)O2)[C@H](C)[C@@H](O[C@@H]2O[C@H](C)C[C@H](N(C)C)[C@H]2O)[C@](C)(O)C[C@@H](C)C(=O)[C@H](C)[C@@H](O)[C@]1(C)O`
**A:** NO
